Tested on: SNB-75 CNS
Procedure Text: NCI tumour cell line growth inhibition, 48 h
Value Kind: TGI

Known TGI results, listed for orientation:
Molecule	TGI
[N-]=[N+]=Nc1cccc(-c2n[nH]c(Cl)cc2=O)c1	> 100 µM
COc1ccc(/C=C(/C(=O)N2CCCCC2)c2cc(OC)c(OC)c(OC)c2)cc1	> 100 µM
COc1ccc2nc3c(n2c1)C(=O)C(=O)c1ccccc1-3	2.77 µM
CC(C)C(=O)NCC[C@@H](CNC(=O)OC(C)(C)C)NC(=O)OC(C)(C)C	> 100 µM
CCOC(=O)C(/C(=N/NC(=O)OC)C(=O)Nc1ccc(C(C)=O)cc1)c1cnc2ccccc2n1 (stereo not given)	> 100 µM

// next item, TGI requested
Input line: // fetch TGI given entry O=C1OC(Cl)C(N=P(c2ccccc2)(c2ccccc2)c2ccccc2)=C1Cl (stereo not given)
Output line: 85.4 µM
